- Protocol details: Peptide stability in fresh blood taken by cardiac puncture into a syringe containing the peptide (blood, B)
- Type: in vitro ADME, CD-1 mice
- Cond: CD-1, mouse, fresh whole blood; blood, 37°C, 1 h, 31.5 μmol/L; read-out: intact peptide remaining relative to time zero
Reported endpoint: remaining at 1 h (%)
One number for each entry, in %.

Which measured remaining at 1 h value corresponds to H-VDKPPYLPRPRPPRRIYNR-NH2 [Onc18, VDKPPYLPRPRPPRRIYNR-NH2] ?
42

---

- Protocol details: Peptide stability in direct serum (DS)
- Format: in vitro ADME, CD-1 mice
- Cond: CD-1, mouse, direct serum (supernatant of blood centrifuged immediately), 37°C, 1 h, 31.5 μmol/L, read-out: intact peptide remaining relative to time zero
Reported endpoint: remaining at 1 h, 31.5 μmol/L (%)
Give bare numbers, in %.

For the substance H-VDKPPYLPRPRPPRRIYNR-NH2 [Onc18, VDKPPYLPRPRPPRRIYNR-NH2] , what remaining at 1 h, 31.5 μmol/L is on record?
72
